Species: Homo sapiens
measurement-notes: Selectivity ratio of Ki for human mu opioid receptor to Ki for human kappa opioid receptor
quantity-kind: Ratio Ki
One number for each entry.

# count of solved cases: 5
[
  {
    "substance-smiles": "COc1ccc(CC(=O)Oc2ccc3c(c2)[C@@]24CCCC[C@@]2(O)[C@@H](C3)N(CC2CCC2)CC4)cc1",
    "Ratio Ki": 1
  },
  {
    "substance-smiles": "O=[N+]([O-])c1ccc(Oc2ccc3c(c2)[C@@]24CCCC[C@@]2(O)[C@@H](C3)N(CC2CCC2)CC4)cc1",
    "Ratio Ki": 1.8
  },
  {
    "substance-smiles": "O=C(COc1ccccc1)Oc1ccc2c(c1)[C@@]13CCCC[C@@]1(O)[C@@H](C2)N(CC1CCC1)CC3",
    "Ratio Ki": 1
  },
  {
    "substance-smiles": "O=C(Oc1ccc2c(c1)[C@@]13CCCC[C@@]1(O)[C@@H](C2)N(CC1CCC1)CC3)c1ccc(-c2ccccc2)cc1",
    "Ratio Ki": 1
  },
  {
    "substance-smiles": "O=C(Cc1ccccc1)Oc1ccc2c(c1)[C@@]13CCCC[C@@]1(O)[C@@H](C2)N(CC1CCC1)CC3",
    "Ratio Ki": 1.5
  }
]

Report Ratio Ki for every entry below.
1. O=C(Cc1ccc(-c2ccccc2)cc1)Oc1ccc2c(c1)[C@@]13CCCC[C@@]1(O)[C@@H](C2)N(CC1CCC1)CC3
2. O[C@@]12CCCC[C@@]13CCN(CC1CCC1)[C@@H]2Cc1ccc(OCCc2ccccc2)cc13
3. C[C@H]1[C@H]2Cc3ccc(C(=O)N(C)CCc4ccc(-c5ccccc5)cc4)cc3[C@@]1(C)CCN2CC1CC1
4. OCCCOc1ccc2c(c1)[C@@]13CCCC[C@@]1(O)[C@@H](C2)N(CC1CCC1)CC3

## Result
1: 1; 2: 1; 3: 1.6; 4: 1
